Target: human luteinizing hormone (hLH) (Homo sapiens, UniProt P01215;P01229 P01215:25-116,P01229:21-141)
Sequence (P01215 25-116, chain 1 of 2): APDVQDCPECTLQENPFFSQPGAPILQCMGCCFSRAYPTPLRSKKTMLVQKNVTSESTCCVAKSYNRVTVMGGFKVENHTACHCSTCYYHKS
Sequence (P01229 21-141, chain 2 of 2): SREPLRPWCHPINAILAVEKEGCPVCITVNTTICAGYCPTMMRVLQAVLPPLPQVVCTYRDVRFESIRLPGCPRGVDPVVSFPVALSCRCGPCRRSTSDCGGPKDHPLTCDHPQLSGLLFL
Test: filter; Mg, pH 6.5; <2-fold change at pH 7.0
Details: tags: Becton Dickinson (2'-NH2 work); Scripps/Vitro Diagnostics (2'-F work); chain copies: alpha/beta heterodimer (inferred); label: 32P
ATTRIBUTE MEASURED: Kd

* H-42 (ssRNA, 2'-NH2 all pyrimidines) RNA: GGGAGGACGAUGCGGACAAGGGCCUGAGUGUGGAGGGCACGUGGAGGGGACUGGCCAGACGACUCGCCCGA | 15 nM
